# assay procedure: NCI Yeast Anticancer Drug Screen. Data for the mlh1 rad18 strain (AID 175)
# conditions used: S. cerevisiae mlh1 rad18 strain growth inhibition; at 5.0 µM (retest, dose inferred, filed as 0.5); active compounds read high
Compounds without any hit were thinned out: in the full panel of roughly 79,000, 15% have a hit.
Decide by growth inhibition: equal to or exceeding 20% means Met, less means Not met.

stdin: Determine whether this compound has growth inhibition no lower than 20%: C#CC(=O)OCC#CCOC(=O)C#C
stdout: Not met

stdin: For this compound, is measured growth inhibition 20% or higher? S=C(NCCc1ccccc1)N/N=C/c1ccc(Cl)cc1
stdout: Met

stdin: growth inhibition >= 20% for O=C(Oc1ccc(O)c2ccccc12)c1ccccc1 ?
stdout: Not met

stdin: Decide: growth inhibition of CCCC(C)C/C(C)=C\C(C)(C)C1CC(=O)N(CC)C1=O (stereo unspecified) >= 20%?
stdout: Not met

stdin: Could you tell me if the measured growth inhibition of N=C(N)c1ccc(SCCCCCSc2ccc(C(=N)N)cc2)cc1 reaches 20% or more?
stdout: Met

stdin: Determine whether this compound has growth inhibition no lower than 20%: Cc1cc(C)cc([C@H](C)N=Cc2cc(Br)ccc2O)c1
stdout: Not met

Attribution: PubChem BioAssay (NCI)
